Each recorded value in this set is attributed to paper PMC4494927.

- MEASURED ON: PDGFRα (Homo sapiens)
- Sequence (P16234 24-1089, species assumed): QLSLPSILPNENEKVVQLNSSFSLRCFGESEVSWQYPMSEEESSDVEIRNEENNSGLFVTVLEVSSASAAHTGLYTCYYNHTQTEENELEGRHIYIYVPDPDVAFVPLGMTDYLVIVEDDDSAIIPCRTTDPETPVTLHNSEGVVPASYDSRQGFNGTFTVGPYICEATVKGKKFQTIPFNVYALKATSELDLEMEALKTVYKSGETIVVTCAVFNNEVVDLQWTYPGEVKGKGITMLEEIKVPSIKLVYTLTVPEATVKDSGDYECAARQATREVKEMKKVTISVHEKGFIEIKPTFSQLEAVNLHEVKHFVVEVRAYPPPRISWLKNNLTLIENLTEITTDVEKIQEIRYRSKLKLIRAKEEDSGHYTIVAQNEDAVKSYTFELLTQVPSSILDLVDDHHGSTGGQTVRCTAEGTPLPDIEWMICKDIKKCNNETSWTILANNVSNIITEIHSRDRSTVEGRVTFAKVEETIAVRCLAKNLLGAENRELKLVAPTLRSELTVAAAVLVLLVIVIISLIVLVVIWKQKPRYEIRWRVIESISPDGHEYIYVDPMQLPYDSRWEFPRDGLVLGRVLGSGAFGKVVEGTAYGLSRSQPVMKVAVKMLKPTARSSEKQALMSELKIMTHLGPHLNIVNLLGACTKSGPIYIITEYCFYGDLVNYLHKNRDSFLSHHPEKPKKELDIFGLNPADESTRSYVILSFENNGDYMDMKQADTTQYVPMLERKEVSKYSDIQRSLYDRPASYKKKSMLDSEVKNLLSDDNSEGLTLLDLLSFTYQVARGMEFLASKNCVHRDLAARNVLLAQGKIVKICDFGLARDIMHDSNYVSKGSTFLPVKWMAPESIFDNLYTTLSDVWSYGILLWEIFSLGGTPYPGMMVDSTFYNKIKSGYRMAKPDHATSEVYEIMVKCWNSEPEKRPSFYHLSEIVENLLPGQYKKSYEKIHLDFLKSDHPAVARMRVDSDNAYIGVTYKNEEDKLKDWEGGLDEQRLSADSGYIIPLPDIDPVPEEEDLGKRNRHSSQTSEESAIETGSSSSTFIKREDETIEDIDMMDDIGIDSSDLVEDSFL
READOUT NAME: IC50 (µM)
Kindly provide the numeric value in µM only, without the unit symbol.

q: Report IC50 on PDGFRα (Homo sapiens) for this entry: Cc1ccc(NC(=O)c2cccc(CN3CCN(C)CC3)c2)cc1Oc1nccc(-c2cccnc2)n1.Cl
a: 3.28

###

- MEASURED ON: recombinant human SET protein (Homo sapiens)
- Construct: Genes encoding the full length of human SET (GenBank No.: AAA60318.1) was synthesized
- Sequence (Q01105 1-277 isoform Q01105-2): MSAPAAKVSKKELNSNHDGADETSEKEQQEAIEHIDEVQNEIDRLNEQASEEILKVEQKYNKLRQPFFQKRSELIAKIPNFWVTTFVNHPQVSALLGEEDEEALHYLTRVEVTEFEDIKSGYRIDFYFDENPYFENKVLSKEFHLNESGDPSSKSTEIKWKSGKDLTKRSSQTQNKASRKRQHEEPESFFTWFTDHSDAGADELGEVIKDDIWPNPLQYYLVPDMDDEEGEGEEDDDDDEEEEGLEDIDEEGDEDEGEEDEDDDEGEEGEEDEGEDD
- TEST SUMMARY: Microscale thermophoresis (MST) binding to NT647-labeled SET
- SETTINGS: 15 μM NT647-labeled SET, PBS pH 8.0, 25 °C
READOUT NAME: pKd
# log scale: pKd equals minus log10 of the concentration in mol/L

q: Consider the compound Cc1ccc(NC(=O)c2cccc(CN3CCN(C)CC3)c2)cc1Oc1nccc(-c2cccnc2)n1.Cl . State its measured pKd.
a: 5.78

###

- MEASURED ON: EphB2 (Homo sapiens, UniProt P29323)
- Sequence (P29323 19-1055): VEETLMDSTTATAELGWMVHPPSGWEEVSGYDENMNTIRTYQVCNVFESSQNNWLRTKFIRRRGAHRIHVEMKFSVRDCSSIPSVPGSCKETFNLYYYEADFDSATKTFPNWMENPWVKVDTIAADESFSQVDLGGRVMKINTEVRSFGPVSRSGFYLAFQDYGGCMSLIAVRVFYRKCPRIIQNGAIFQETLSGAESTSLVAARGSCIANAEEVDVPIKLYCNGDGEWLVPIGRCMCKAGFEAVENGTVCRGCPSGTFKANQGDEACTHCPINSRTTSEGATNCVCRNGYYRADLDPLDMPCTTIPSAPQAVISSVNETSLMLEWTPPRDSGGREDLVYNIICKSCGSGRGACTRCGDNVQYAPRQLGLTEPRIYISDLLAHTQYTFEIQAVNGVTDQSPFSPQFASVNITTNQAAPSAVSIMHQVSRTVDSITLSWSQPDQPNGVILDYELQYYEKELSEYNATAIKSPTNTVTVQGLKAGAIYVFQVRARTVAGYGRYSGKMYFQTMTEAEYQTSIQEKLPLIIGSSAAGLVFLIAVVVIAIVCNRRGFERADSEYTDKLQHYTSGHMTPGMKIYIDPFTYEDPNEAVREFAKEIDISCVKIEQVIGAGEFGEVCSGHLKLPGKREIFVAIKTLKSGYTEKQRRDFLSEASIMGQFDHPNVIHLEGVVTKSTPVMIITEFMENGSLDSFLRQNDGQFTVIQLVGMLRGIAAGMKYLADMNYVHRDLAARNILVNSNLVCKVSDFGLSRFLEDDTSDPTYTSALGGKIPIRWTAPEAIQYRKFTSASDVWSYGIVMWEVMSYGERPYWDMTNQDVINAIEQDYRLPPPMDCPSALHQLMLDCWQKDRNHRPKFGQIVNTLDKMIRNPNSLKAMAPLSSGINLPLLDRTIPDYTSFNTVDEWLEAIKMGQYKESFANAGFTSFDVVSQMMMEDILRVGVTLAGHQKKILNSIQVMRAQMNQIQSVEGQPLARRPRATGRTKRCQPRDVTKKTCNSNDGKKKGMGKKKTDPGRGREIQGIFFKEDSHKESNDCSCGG
READOUT NAME: IC50

q: Report IC50 on EphB2 (Homo sapiens, UniProt P29323) for this entry: Cc1ccc(NC(=O)c2cccc(CN3CCN(C)CC3)c2)cc1Oc1nccc(-c2cccnc2)n1.Cl [TGI1002]
a: 1270 nM
